- System: DNA
- Test Protocol: Induction of bleomycin-dependent DNA (unknown origin) damage assessed as absorbance at 0.1 mg/ml measured after 1 hr; also: unit not given here
- Type: nucleic-acid assay
The entries below are paired with their reported Activity.
Just the number.

CC(C)Cc1ccc(C(C)C(=O)NCc2ccc(-n3[se]c4ccccc4c3=O)cc2)cc1 (centres undefined)    106
O=C(NCCn1[se]c2ccccc2c1=O)c1ccccc1Nc1cccc(C(F)(F)F)c1    77.7
COc1ccc2c(c1)c(CC(=O)NCc1ccc(-n3[se]c4ccccc4c3=O)cc1)c(C)n2C(=O)c1ccc(Cl)cc1    101
CC(=O)Oc1ccccc1C(=O)NCc1ccc(-n2[se]c3ccccc3c2=O)cc1    108
COc1ccc2c(c1)c(CC(=O)NCCn1[se]c3ccccc3c1=O)c(C)n2C(=O)c1ccc(Cl)cc1    92.4
O=C1O[C@H]([C@@H](O)CO)C(O)=C1O    292
C=C(C(=O)NCCn1[se]c2ccccc2c1=O)c1ccc(CC(C)C)cc1    68.4
CC(C(=O)NCCn1[se]c2ccccc2c1=O)c1cccc(C(=O)c2ccccc2)c1 (centres undefined)    87.6

// next entry
For the molecule O=C(NCc1ccc(-n2[se]c3ccccc3c2=O)cc1)c1ccccc1Nc1cccc(C(F)(F)F)c1 , give its measured Activity value. 56.1
